Target: Receptor tyrosine-protein kinase erbB-2 (Homo sapiens) (UniProt P04626)
Sequence (P04626 whole entry, looked up): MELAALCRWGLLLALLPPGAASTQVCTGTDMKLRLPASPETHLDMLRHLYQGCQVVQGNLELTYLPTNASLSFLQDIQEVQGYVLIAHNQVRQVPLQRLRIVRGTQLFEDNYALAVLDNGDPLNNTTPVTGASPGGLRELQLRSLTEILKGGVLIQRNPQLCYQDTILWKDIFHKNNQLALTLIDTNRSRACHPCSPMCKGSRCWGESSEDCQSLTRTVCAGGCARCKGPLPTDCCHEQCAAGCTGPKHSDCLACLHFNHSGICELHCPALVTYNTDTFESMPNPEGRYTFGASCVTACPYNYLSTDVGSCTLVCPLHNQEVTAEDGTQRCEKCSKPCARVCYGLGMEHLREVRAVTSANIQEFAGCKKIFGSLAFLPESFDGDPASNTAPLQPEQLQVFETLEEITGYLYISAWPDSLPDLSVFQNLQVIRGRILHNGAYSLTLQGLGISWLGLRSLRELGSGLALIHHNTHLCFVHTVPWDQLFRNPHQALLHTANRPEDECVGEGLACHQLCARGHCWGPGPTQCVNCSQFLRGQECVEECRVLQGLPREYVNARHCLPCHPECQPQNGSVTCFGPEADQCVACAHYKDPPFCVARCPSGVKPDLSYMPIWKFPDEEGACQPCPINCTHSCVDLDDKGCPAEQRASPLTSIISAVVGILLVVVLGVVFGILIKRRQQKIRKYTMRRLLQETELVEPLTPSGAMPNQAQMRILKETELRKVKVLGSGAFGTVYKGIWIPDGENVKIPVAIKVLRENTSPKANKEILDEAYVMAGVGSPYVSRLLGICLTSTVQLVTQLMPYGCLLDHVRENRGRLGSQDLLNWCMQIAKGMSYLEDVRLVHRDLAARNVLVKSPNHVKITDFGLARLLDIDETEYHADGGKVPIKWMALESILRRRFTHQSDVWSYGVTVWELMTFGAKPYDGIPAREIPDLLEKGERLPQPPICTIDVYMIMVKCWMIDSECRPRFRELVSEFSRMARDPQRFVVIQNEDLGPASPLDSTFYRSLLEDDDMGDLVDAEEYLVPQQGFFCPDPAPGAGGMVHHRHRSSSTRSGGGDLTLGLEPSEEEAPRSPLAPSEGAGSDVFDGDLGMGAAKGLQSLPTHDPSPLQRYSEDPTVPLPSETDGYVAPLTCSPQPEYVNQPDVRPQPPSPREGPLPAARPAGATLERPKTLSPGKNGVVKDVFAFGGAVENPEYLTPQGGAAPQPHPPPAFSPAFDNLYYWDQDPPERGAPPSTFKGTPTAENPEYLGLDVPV
Experiment: reducers of endogenous Her2 protein level, primary screen, SKBR3 breast tumor cells, AlphaScreen, ATP viability (AID 461);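 note: lower value means less Her2 protein in the cells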
Details: 18-24 h, at 10 µM, active compounds read low
Below is a list of entries, each paired with its recorded Her2 level value.

{"COMPOUND": "Cn1c(=O)n(Cc2ccc(F)cc2)c(=O)c2c1nc1n2CCCN1Cc1ccccc1", "Her2 level (%)": 80.5}
{"COMPOUND": "Cc1cc(C)n(-c2nc3ccccc3c(=O)n2OCCOc2ccccc2)n1", "Her2 level (%)": 93}
{"COMPOUND": "CCOC(=O)Cc1c(C)c2c(O)cc(O)cc2oc1=O", "Her2 level (%)": 77.5}
{"COMPOUND": "Nc1nc(-n2cnnc2)nn1-c1ccccc1", "Her2 level (%)": 116}
{"COMPOUND": "CC(=O)Nc1ccc(S(=O)(=O)n2nc(C)cc2C)cc1", "Her2 level (%)": 106}
{"COMPOUND": "O=C(CCn1c(=O)sc2ccccc21)Nc1nccs1", "Her2 level (%)": 97}
{"COMPOUND": "COCCn1nnnc1C(c1cccs1)N1CCN(c2cc(C)ccc2C)CC1 (stereo unspecified)", "Her2 level (%)": 84.5}
{"COMPOUND": "CC(=O)NCCOc1cccc(OCCNC(C)=O)c1", "Her2 level (%)": 122}
{"COMPOUND": "Cc1ccc2cc(CN(Cc3ccc4c(c3)OCO4)Cc3nnnn3Cc3ccco3)c(=O)[nH]c2c1C", "Her2 level (%)": 97}
{"COMPOUND": "O=C(Cn1cnc2c(nnn2Cc2ccccc2)c1=O)c1ccc(Cl)cc1", "Her2 level (%)": 110}
{"COMPOUND": "O=C(O)c1cc(-c2ccccc2Cl)n[nH]1", "Her2 level (%)": 93.5}
{"COMPOUND": "Cc1ccc(-n2ncc3c(=O)n(CC(=O)NC4CCCCC4)cnc32)cc1C", "Her2 level (%)": 108}
{"COMPOUND": "CCN1CCN(S(=O)(=O)c2ccc(S(=O)(=O)N(CC)Cc3ccccc3)cc2)CC1", "Her2 level (%)": 94}
{"COMPOUND": "O=C1c2ccccc2C(=O)N1CNc1ccccc1", "Her2 level (%)": 93.5}
{"COMPOUND": "O=C(COC(=O)c1cncc(Br)c1)NCCC1=CCCCC1", "Her2 level (%)": 93}
{"COMPOUND": "Cc1ccc(-c2noc(CCC(=O)NCCc3ccccc3Cl)n2)cc1", "Her2 level (%)": 90}
{"COMPOUND": "CCOC(=O)c1c(C)c(C(=O)NCCN2CCOCC2)c(C)n1C", "Her2 level (%)": 91}
{"COMPOUND": "COCC(=O)N(Cc1cc2cc(OC)ccc2[nH]c1=O)c1ccccc1", "Her2 level (%)": 112}
{"COMPOUND": "Cn1c(=O)c2[nH]c(NCC3CCCO3)nc2n(-c2ccccc2)c1=O (stereo unspecified)", "Her2 level (%)": 81}
{"COMPOUND": "Cc1ccc(S(=O)(=O)N(CC(=O)N2CCOCC2)CC(=O)N2CCOCC2)cc1", "Her2 level (%)": 87}
{"COMPOUND": "CCOC(=O)CSc1nc2sc(C)c(C)c2c(=O)n1C", "Her2 level (%)": 69}

* * *

Assay: Restrictive medium S. cerevisiae growth inhibition, OD615, pilot screen of yeast lifespan reduction project, restrictive growth control (AID 706);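 note: modified DeaD lifespan yeast strain shifted to restrictive glucose medium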
Conditions: OD615, 48 h, at 10 µM, active compounds read high
Overview of recorded growth inhibition for various molecules
OUTCOME MEASURE: growth inhibition (%)

{"MOLECULE": "COC(=O)CSc1ccc2nnc(-c3ccc(OC)c(OC)c3)n2n1", "ASSAY VALUE": -18.4}
{"MOLECULE": "CC(CCc1ccccc1)NC(=O)CSc1nnnn1C (stereo not drawn)", "ASSAY VALUE": -18.6}
{"MOLECULE": "Cc1cccc(OCCCCCNCCO)c1", "ASSAY VALUE": -8.45}
{"MOLECULE": "CCOc1ccc(NC(=O)CSc2nnc(-c3ccccc3)n2N)cc1", "ASSAY VALUE": -0.575}
{"MOLECULE": "Nc1nc2n(n1)C(c1ccccc1Cl)CC(c1ccc(F)cc1)N2 (stereo not drawn)", "ASSAY VALUE": 2.18}
{"MOLECULE": "COc1ccc(S(=O)(=O)NCc2ccc3c(c2)cc(C)n3C)cc1", "ASSAY VALUE": -11.2}
{"MOLECULE": "O=C(O)CNS(=O)(=O)c1ccc(F)cc1", "ASSAY VALUE": -7.54}
{"MOLECULE": "CCOC(=O)C1=CSC2=NS(=O)(=O)CCN12", "ASSAY VALUE": -2.12}
{"MOLECULE": "CC(=O)c1cccc(NC(=O)CN(c2ccc(F)cc2)S(C)(=O)=O)c1", "ASSAY VALUE": -15.2}
{"MOLECULE": "Cc1nc(N2CCCCC2)c2sc(=S)n(C)c2n1", "ASSAY VALUE": 7.63}
{"MOLECULE": "CCOC(=O)Cc1csc(NC(=O)CN2C(=O)c3ccccc3S2(=O)=O)n1", "ASSAY VALUE": -15}
{"MOLECULE": "Cc1ccc(S(=O)(=O)NCC(=O)N2CCOCC2)cc1", "ASSAY VALUE": -10.3}
{"MOLECULE": "O=C(CCCOc1ccccc1)NCC1CCCO1 (stereo not drawn)", "ASSAY VALUE": -6.75}

* * *

Examples of compounds with documented viability follow.
Test: growth suppression of PTEN-deleted HCT116, pilot screen, cell-based, HCT116 clonal line, CellTiter-Glo (AID 824);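 note: 0% = 20 µM Hyamine control and 100% = vehicle cell control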
Conditions: 60 h, at 10 µM, active compounds read low
Inconclusive results are not listed.

{"COMPOUND": "COC(=O)c1c(C)oc2cc(Br)c(OCC(=O)C(C)(C)C)cc12", "READOUT UNIT": "%", "viability": 90.9}
{"COMPOUND": "COc1ccc(CN2CCN(C(=O)c3cccs3)CC2)cc1Br", "READOUT UNIT": "%", "viability": 87.9}
{"COMPOUND": "C=CCSc1nnc2c(n1)OC(c1cccnc1)Nc1ccccc1-2 (stereo unspecified)", "READOUT UNIT": "%", "viability": 88}
{"COMPOUND": "O=C(NCc1cccnc1)c1cnn2ccccc12", "READOUT UNIT": "%", "viability": 90.9}
{"COMPOUND": "COc1cccc(C2CC(c3cccc(C)c3)n3ncnc3N2)c1 (stereo unspecified)", "READOUT UNIT": "%", "viability": 90.4}
{"COMPOUND": "Cc1ccc2c(c1)C(c1ccccc1)N(C(=O)C(C)C)CC(=O)N2 (stereo unspecified)", "READOUT UNIT": "%", "viability": 92.1}

* * *

Assay: HUVEC growth inhibition – cell-based, human, primary screen (AID 575);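 note: 100% = median of untreated cell wells with 0.1% DMSO on each plate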
Conditions: HUVEC proliferation, CellTiter-Glo luminescence, 72 h; at 10 µM; active compounds read low

{"COMPOUND": "O=C(c1ccccc1-c1ccccc1)N1CCN(c2ccccn2)CC1", "READOUT UNIT": "%", "viability": 58.8}
{"COMPOUND": "Cc1cc(NC(=O)Cc2cn3ccsc3n2)n(-c2ccccc2)n1", "READOUT UNIT": "%", "viability": 91.8}
{"COMPOUND": "OCCOCCN1CCN(C(c2ccccc2)c2ccc(Cl)cc2)CC1 (stereo unspecified)", "READOUT UNIT": "%", "viability": 90.1}
{"COMPOUND": "COc1cc(OC)cc(-c2nc3cc(C)ccc3o2)c1", "READOUT UNIT": "%", "viability": 62.8}
{"COMPOUND": "CN1/C(=C\\C(=O)C(F)F)C(C)(C)c2ccccc21", "READOUT UNIT": "%", "viability": 99.5}
{"COMPOUND": "COc1ccc(C2CC(C(F)(F)F)n3ncc(C(=O)NCc4cccnc4)c3N2)cc1OC (stereo unspecified)", "READOUT UNIT": "%", "viability": 94.2}
{"COMPOUND": "CCOC(=O)C(CCc1nnc(N)s1)C(=O)OCC", "READOUT UNIT": "%", "viability": 110}
{"COMPOUND": "O=C(NCc1ccco1)C(c1ccco1)N(C(=O)Cn1nnc2ccccc21)c1ccc2c(c1)CCC2 (stereo unspecified)", "READOUT UNIT": "%", "viability": 89.7}
{"COMPOUND": "Nc1nc(N2C(=O)C3CC=CCC3C2=O)nn1-c1ccccc1 (stereo unspecified)", "READOUT UNIT": "%", "viability": 105}
{"COMPOUND": "CCOC(=O)CSc1nnc([C@H](CC(C)C)NC(=O)OC(C)(C)C)o1", "READOUT UNIT": "%", "viability": 94}
{"COMPOUND": "COc1ccccc1N=Cc1nc(-c2ccccc2)oc1OC(C)=O", "READOUT UNIT": "%", "viability": 79.2}
{"COMPOUND": "CCOC(=O)N1CCN(C(=O)CCc2c(C)nc3c(c(C)nn3-c3ccc(C)c(C)c3)c2C)CC1", "READOUT UNIT": "%", "viability": 82}
{"COMPOUND": "CCOC(=O)C1CCCN(C(=O)c2ccc3c(=O)n(CCOC)c(=S)[nH]c3c2)C1 (stereo unspecified)", "READOUT UNIT": "%", "viability": 80.6}
{"COMPOUND": "O=C(c1ccco1)N1CCN(c2cccc(Cl)c2)CC1", "READOUT UNIT": "%", "viability": 88.1}
{"COMPOUND": "COc1cc(S(=O)(=O)N2CCOCC2)ccc1NC(=O)COC(=O)C12CC3CC(CC(C3)C1)C2", "READOUT UNIT": "%", "viability": 87.2}
{"COMPOUND": "COc1ccccc1Nc1nc(N)nc(CSc2nccc(C)n2)n1", "READOUT UNIT": "%", "viability": 107}
{"COMPOUND": "CCOC(=O)c1[nH]c(C)c(C(=O)Nc2ccc(C)c(Cl)c2)c1C", "READOUT UNIT": "%", "viability": 61.4}
{"COMPOUND": "CC(=O)N1C(=O)N(C)C2C1N(C(C)=O)C(=O)N2C (stereo unspecified)", "READOUT UNIT": "%", "viability": 92.4}
{"COMPOUND": "CC(C)Cn1c(=O)c(C(=O)Nc2ccccc2S(N)(=O)=O)c(O)c2ccccc21", "READOUT UNIT": "%", "viability": 62.9}
{"COMPOUND": "N#CC1=C(SCC(=O)c2cc3ccccc3oc2=O)NC(=O)C(C#N)C12CCCC2 (stereo unspecified)", "READOUT UNIT": "%", "viability": 72.1}
{"COMPOUND": "Cc1ccc(-n2nc(-c3cccs3)cc2C(=O)NCC2CCCO2)c(C)c1 (stereo unspecified)", "READOUT UNIT": "%", "viability": 71.3}

Origin of values: PubChem BioAssay
